- Tested on: ATP;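 also: ATP exposure 15 min at 22 °C before imaging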
- experimentalProtocol: switch fluorescence ratio, 500 uM ATP over buffer (Cy3 cluster intensity, sum of 5 cycles each) (fold (ratio)); higher = stronger signal-on switching upon ATP binding; sequences stand for … in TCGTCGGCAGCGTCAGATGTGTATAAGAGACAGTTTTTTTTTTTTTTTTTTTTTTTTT…TC
- condition: aptamer strand: ATP DNA aptamer (quencher-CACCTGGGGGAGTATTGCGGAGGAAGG + anchor), 100 nM annealed; ATP concentration: 500 uM
measurementKind: switch fluorescence ratio
Numbers only.

These recorded examples may help you get a feel for the data.
- polymerSequence: "TTTTGTGTA"
  switch fluorescence ratio: 0.994
- polymerSequence: "TAAATCCGGA"
  switch fluorescence ratio: 0.995
- polymerSequence: "GGCTATGGGG"
  switch fluorescence ratio: 1
- polymerSequence: "GGTTTCCGT"
  switch fluorescence ratio: 0.987
- polymerSequence: "CGTCGCGGCA"
  switch fluorescence ratio: 0.989

Quick batch: switch fluorescence ratio for everything below.
1. TATTGCGGGG
2. ACTTACGGCG
3. GATAAGATGG
4. AATTAACTCT
5. CGCAGGGTTA
6. TGGTTGGTC
7. GGGGAAGCCG

1: 1.2; 2: 1.17; 3: 0.979; 4: 1.05; 5: 1.02; 6: 0.965; 7: 1.01

Quick batch: switch fluorescence ratio for everything below.
1. AAATGGTGTG
2. GGTTGGGTTT

[1.02, 0.989]

Quick batch: switch fluorescence ratio for everything below.
1. CATGGGCAGC
2. CGTTGGGGTG
3. TTTTTCAGGG
4. GGGGATGAAA
5. TGCCTTATTT

0.997
1.03
1.01
0.989
1

Quick batch: switch fluorescence ratio for everything below.
1. CGTGGGGACT
2. TATGTACTAT

0.991
1.08

Quick batch: switch fluorescence ratio for everything below.
1. TGGAAGAAAT
2. CTGAAGGATT
3. GAGCTAACGG
4. GAGTATTGGG
5. CAGAGTAATA

1.02
1.01
1.01
0.99
1.45

Quick batch: switch fluorescence ratio for everything below.
1. TTGGTTCATG
2. GGGAAGAGGA
3. TTTAAATTCG
4. ATAAGTATGT
5. CCCCTGTTTT
6. CGCTCTTATT
7. GCCAGGGAGG

1. 0.998
2. 0.979
3. 1.01
4. 1
5. 1.01
6. 0.978
7. 1.03

Quick batch: switch fluorescence ratio for everything below.
1. TGGAGAAAGT
2. GAGTGAGTAG
3. CATTTCGAAC
4. TTTATTGCAT

1.03
0.979
1.02
1.02

Quick batch: switch fluorescence ratio for everything below.
1. TTGGTTAGCC
2. TTTTAGCAGA
3. GTGCGATTTA
4. AGAAGGGGG
5. ACCGGGGGCT
6. TCTAAATCTT
7. TTTTCTTGTC

1: 0.975; 2: 1.06; 3: 0.992; 4: 0.968; 5: 1.03; 6: 1.01; 7: 1.04
